Test system: IGROV-1
assay: Anticancer activity against Homo sapiens (human) IGROV1 cells assessed as cell growth promotion at 10 uM after 48 hr by SRB assay
Assay type: functional
measurementType: Activity

| structureString | result |
| --- | --- |
| CCOC(=O)c1csc(NC(=O)CSc2nc(C)c(C)n2Nc2ccc(C)cc2)n1 | 95.15% |
| Cc1nc(SCC(=O)Nc2nc(-c3ccc(Cl)cc3)cs2)n(Nc2ccccc2)c1C | 68.44% |
| Cc1ccc(Nn2c(SCC(=O)Nc3nc(-c4ccccc4)cs3)nc(C)c2C)cc1 | 86% |
| Cc1nc(SCC(=O)Nc2nccs2)n(Nc2ccc(Cl)cc2)c1C | 126.1% |

Noted for Cc1nc(SCC(=O)Nc2nccs2)n(Nc2ccccc2)c1C : its Activity reads 123.21%

Noted for COc1ccc(Nn2c(SCC(=O)Nc3nc(-c4ccc(Cl)cc4)cs3)nc(C)c2C)cc1 : its Activity reads 70.85%

Noted for COc1ccc(Nn2c(SCC(=O)Nc3nccs3)nc(C)c2C)cc1 : its Activity reads 102.01%
